Ref: patent US7504420B2

target: memapsin 2 (Homo sapiens)
experiment_description: Inhibition of memapsin 2 catalytic activity (Ki)
Type: biochemical
setup_conditions: memapsin 2, pH 4, 37° C.; read-out: M2K
Please provide measured Ki for the entries that follow.

- CC(NC(=O)c1cc(C(=O)NC(Cc2ccccc2)C(O)CNCC2CCCNC2)cc(N(C)S(C)(=O)=O)c1)c1ccccc1 (stereo not shown): > 501 nM
- Cc1cncc(CNCC(O)C(Cc2ccccc2)NC(=O)c2cccc(C(=O)N(C)Cc3nc(C)cs3)c2)c1 (stereo not shown): < 300 nM
- COc1cccc(CNCC(O)C(Cc2ccccc2)NC(=O)c2cccc(C(=O)N(C)Cc3nc(C)cs3)c2)c1 (stereo not shown): < 300 nM

Here is another molecule to look at.
Determine its reported Ki: COc1cccc(CNCC(O)C(Cc2ccccc2)NC(=O)c2cc(C(=O)NC(C)C3COC4OCCC43)cc(N(C)S(C)(=O)=O)c2)c1 (stereo not shown) > 501 nM

---

Hi there, I'd appreciate the recorded Ki for every entry that follows.
target: memapsin 2 (Homo sapiens, UniProt P56817)
Sequence (P56817 46-501): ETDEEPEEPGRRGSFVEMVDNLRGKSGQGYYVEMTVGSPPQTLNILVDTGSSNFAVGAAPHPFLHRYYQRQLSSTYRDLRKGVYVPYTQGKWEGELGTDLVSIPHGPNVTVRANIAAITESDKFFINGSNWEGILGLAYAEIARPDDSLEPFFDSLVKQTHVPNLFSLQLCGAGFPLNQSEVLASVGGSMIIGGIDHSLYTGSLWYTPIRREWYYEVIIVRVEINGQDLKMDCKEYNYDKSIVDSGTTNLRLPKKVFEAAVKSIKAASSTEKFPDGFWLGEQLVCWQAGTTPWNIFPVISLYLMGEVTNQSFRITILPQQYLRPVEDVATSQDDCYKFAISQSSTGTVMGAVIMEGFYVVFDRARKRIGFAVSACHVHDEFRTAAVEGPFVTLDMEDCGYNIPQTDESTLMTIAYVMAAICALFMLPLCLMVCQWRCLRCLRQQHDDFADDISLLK
experiment_description: Inhibition of memapsin 2 catalytic activity (Ki)
Assay type: biochemical
setup_conditions: memapsin 2, pH 4, 37° C.; read-out: M2K

Sample records with Ki:
- COc1ccc(CCNCC(O)C(Cc2ccccc2)NC(=O)c2cccc(C(=O)N(C)Cc3nc(C)cs3)c2)cc1 (stereo not drawn): > 0.501 µM
- COc1cccc(CNCC(O)C(Cc2ccccc2)NC(=O)c2cc(C(=O)NCc3nc(CO)co3)cc(N(C)S(C)(=O)=O)c2)c1 (stereo not drawn): 0.301 to 0.5 µM

Go through the items and report each one's Ki.
1. CC(NC(=O)c1cc(C(=O)NC(Cc2ccccc2)C(O)CNCc2c[nH]cn2)cc(N(C)S(C)(=O)=O)c1)c1ccccc1 (stereo not drawn)
2. COc1cccc(CNCC(O)C(Cc2ccccc2)NC(=O)c2cc(C(=O)NC(C)c3ccccc3)c(F)cc2F)c1 (stereo not drawn)
3. CC(NC(=O)c1cc(C(=O)NC(Cc2ccccc2)C(O)CNCc2ccccc2O)cc(N(C)S(C)(=O)=O)c1)c1ccccc1 (stereo not drawn)
4. COc1cccc(C(C)NCC(O)C(Cc2ccccc2)NC(=O)c2cc(C(=O)NC(C)c3ccccc3)cc(N(C)S(C)(=O)=O)c2)c1 (stereo not drawn)

1: 0.301 to 0.5 µM; 2: > 0.501 µM; 3: < 0.3 µM; 4: < 0.3 µM

---

Field: Ki. Provide a value for each of the compounds that follow.
target: memapsin 2 (Homo sapiens, UniProt P56817)
experiment_description: Inhibition of memapsin 2 catalytic activity (Ki)
Assay type: biochemical
setup_conditions: memapsin 2, pH 4, 37° C.; read-out: M2K

Please review the entries below; each comes with its answer.
• Cc1csc(C(C)NCC(O)C(Cc2ccccc2)NC(=O)c2cc(C(=O)NC(C)c3ccccc3)cc(N(C)S(C)(=O)=O)c2)n1 (stereo not shown) = < 300 nM
• CCN(c1cc(C(=O)NC(C)c2ccccc2)cc(C(=O)NC(Cc2ccccc2)C(O)CNCc2cccc(OC)c2)c1)S(C)(=O)=O (stereo not shown) = 301 to 500 nM
• Cc1csc(CN(C)C(=O)c2cccc(C(=O)NC(Cc3ccccc3)C(O)CNCc3cccc(C(C)C)c3)c2)n1 (stereo not shown) = < 300 nM

# input for lookup
Specify Ki for COc1cccc(CNCC(O)C(Cc2ccccc2)NC(=O)c2cccc(C(=O)N(C)Cc3coc(C)n3)c2)c1 (stereo not shown) and stop. < 300 nM

---

target: memapsin 2 (Homo sapiens, UniProt P56817)
experiment_description: Inhibition of memapsin 2 catalytic activity (Ki)
Assay type: biochemical
setup_conditions: memapsin 2, pH 4, 37° C.; read-out: M2K
pKi: −log10 of the molar value.
value_type: pKi

* CC(NC(=O)c1cc(C(=O)NC(Cc2ccccc2)C(O)CNCc2cncc(F)c2)cc(N(C)S(C)(=O)=O)c1)c1ccccc1 (centres unmarked) | > 6.52
* CC(NCC(O)C(Cc1ccccc1)NC(=O)c1cc(C(=O)NC(C)c2ccccc2)cc(N(C)S(C)(=O)=O)c1)c1ccccc1 (centres unmarked) | > 6.52
* CCc1cncc(CNCC(O)C(Cc2ccccc2)NC(=O)c2cc(C(=O)NC(C)c3ccccc3)cc(N(C)S(C)(=O)=O)c2)c1 (centres unmarked) | > 6.52
* CC(NC(=O)c1cc(C(=O)NC(Cc2ccccc2)C(O)CNC(C)C2CCCCC2)cc(N(C)S(C)(=O)=O)c1)c1ccccc1 (centres unmarked) | > 6.52

Specify pKi for CC(NC(=O)c1cc(C(=O)NC(Cc2ccccc2)C(O)CNCCN2CCCC2)cc(N(C)S(C)(=O)=O)c1)c1ccccc1 (centres unmarked) and stop. < 6.30

---

Please provide measured Ki for the entries that follow.
target: UniProt:P56817
experiment_description: Inhibition of memapsin 2 catalytic activity (Ki)
Assay type: biochemical
setup_conditions: memapsin 2, pH 4, 37° C.; read-out: M2K
Method: Potency of compounds were determined by measurement of their inhibition of memapsin 2 catalytic activity toward a fluorescent substrate. […] Briefly, assays were performed at pH 4, 37° C., by pre-incubation of memapsin 2 enzyme with compound for 20 minutes. Activity measure was initiated by addition of a fluorogenic substrate FS-2 (Bachem Americas, Torrance, Calif.). Fluorescent signal increase over time was measured as a rate of hydrolysis of the peptide substrate. […]

Answered examples (2):
* CCC(NCC(O)C(Cc1ccccc1)NC(=O)c1cccc(C(=O)N(C)Cc2nc(C)cs2)c1)c1ccccc1 (stereo not drawn) | > 501 nM
* COc1cccc(CNCC(O)C(Cc2ccccc2)NC(=O)c2cccc(C(=O)N(C)Cc3csc(C)n3)c2)c1 (stereo not drawn) | < 300 nM

Query compound follows.
Name the recorded Ki of the item Cc1cncc(CNCC(O)C(Cc2ccccc2)NC(=O)c2cc(C(=O)NC(C)c3ccccc3)cc(N(C)S(C)(=O)=O)c2)c1 (stereo not drawn) in your answer. < 300 nM

---

target: cathepsin D (Homo sapiens, UniProt P07339)
Sequence (P07339 65-412, species assumed): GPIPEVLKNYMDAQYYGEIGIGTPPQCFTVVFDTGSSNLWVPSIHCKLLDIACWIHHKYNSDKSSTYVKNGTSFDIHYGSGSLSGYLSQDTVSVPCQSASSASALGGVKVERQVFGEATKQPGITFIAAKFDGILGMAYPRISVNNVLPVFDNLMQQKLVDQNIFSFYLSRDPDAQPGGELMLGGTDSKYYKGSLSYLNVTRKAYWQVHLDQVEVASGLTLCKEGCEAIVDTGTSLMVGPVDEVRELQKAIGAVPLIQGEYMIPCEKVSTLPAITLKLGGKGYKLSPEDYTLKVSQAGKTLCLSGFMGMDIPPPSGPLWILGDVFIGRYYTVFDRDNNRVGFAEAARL
pKi: −log10 of the molar value.
value_type: pKi

Answered examples (2):
• COc1cccc(CNCC(O)C(Cc2ccccc2)NC(=O)c2cc(C(=O)NCC3COC4OCCC34)cc(N(C)S(C)(=O)=O)c2)c1 (stereo not drawn) = 6.30 to 6.52
• CC(NC(=O)c1cc(C(=O)NC(Cc2ccccc2)C(O)CNCc2nc3ccccc3[nH]2)cc(N(C)S(C)(=O)=O)c1)c1ccccc1 (stereo not drawn) = > 6.52

Give one value of pKi per listed compound.
1. Cc1csc(CN(C)C(=O)c2cccc(C(=O)NC(Cc3ccccc3)C(O)CNCc3cncc(C(C)C)c3)c2)n1 (stereo not drawn)
2. COc1cccc(CNCC(O)C(Cc2ccccc2)NC(=O)c2cccc(C(=O)N(Cc3nc(C)cs3)N(C)C)c2)c1 (stereo not drawn)
3. COc1cccc(CCNCC(O)C(Cc2ccccc2)NC(=O)c2cc(C(=O)NC(C)c3ccccc3)cc(N(C)S(C)(=O)=O)c2)c1 (stereo not drawn)
4. COc1cccc(CNCC(O)C(Cc2ccccc2)NC(=O)c2cccc(C(=O)N(Cc3nc(C)cs3)C3CC3)c2)c1 (stereo not drawn)

> 6.52
< 6.30
> 6.52
> 6.52
